Tested on: RARa homodimer (NR concentration 270 nM)
methodSummary: PBM binding z-score (relative to random genomic background probes); higher = stronger binding; sequences stand for … in GC…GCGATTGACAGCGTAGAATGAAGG
Quick list: PBM binding z-score per entry.
Could you respond with only the numeric value?

CGATGTAGGTTAAGGGGGTCATTCAGTTTGAAAG
4.27
CCTAGTTGGTCAAGGTCTCACACGCTATAGGTAC
1.56
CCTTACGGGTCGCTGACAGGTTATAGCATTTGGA
-0.0216
CCGAGTAGGTTACGAGGGGGCATGCAGTGCGAAT
0.865
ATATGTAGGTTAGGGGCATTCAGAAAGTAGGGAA
1.74

Input `TCGAGTAGGTTACGGGGGCATACAGGGATGAAGA` . Output PBM binding z-score: 0.305

Input `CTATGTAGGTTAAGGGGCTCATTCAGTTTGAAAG` . Output PBM binding z-score: 0.222

Input `TCGAGTAGGTTACGGGGGCATTCGGGGATGAAGA` . Output PBM binding z-score: 0.243

Input `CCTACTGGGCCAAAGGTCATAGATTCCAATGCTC` . Output PBM binding z-score: 1.47

Input `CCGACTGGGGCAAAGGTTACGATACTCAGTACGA` . Output PBM binding z-score: -0.413

Input `CTATGTAGGTTAAGGGGGTCTTTCAGTTTGAAAG` . Output PBM binding z-score: 0.701

Input `TAGCCTAGGTCATTTGGCCAGTATAGTACGCATC` . Output PBM binding z-score: -0.227

Input `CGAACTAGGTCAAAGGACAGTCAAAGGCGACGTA` . Output PBM binding z-score: 0.35

Input `CCGAGTATGTTACGAGGGGGCATTCAGTGCGAAT` . Output PBM binding z-score: 0.735

Input `CGTCAAAGTTCAAGGTAAAGTAACAGAAAGCAGC` . Output PBM binding z-score: 1.3

Input `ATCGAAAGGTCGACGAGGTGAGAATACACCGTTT` . Output PBM binding z-score: 0.753

Input `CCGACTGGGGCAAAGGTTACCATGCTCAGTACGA` . Output PBM binding z-score: -0.847

Input `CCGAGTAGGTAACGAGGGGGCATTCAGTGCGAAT` . Output PBM binding z-score: 0.592

Input `CGAACTGGGTCACCAGGACAGTGAAGAGGTTGGA` . Output PBM binding z-score: -0.049

Input `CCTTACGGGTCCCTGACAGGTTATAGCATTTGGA` . Output PBM binding z-score: 0.466

Input `CCGACTGGGGCAAAGGTTACCACACTCAGTACGA` . Output PBM binding z-score: 0.0195

Input `GCTAGTTGGTCAGTAAATGGTCACACACCGGTCG` . Output PBM binding z-score: 0.255

Input `CGAACTAGGTCAAAGGACAGTGAGAGGCGACGTA` . Output PBM binding z-score: 0.479

----------
System: RXRa DBDmut IVT, anti-RXR (DBD mutation: RXRa K156A/R161A, NR concentration 90 nM)
methodSummary: PBM binding z-score (relative to random genomic background probes); higher = stronger binding; sequences stand for … in GC…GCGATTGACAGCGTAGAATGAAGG
Entries get a class label from measured PBM binding z-score. See ranges: lower segment (below 0.7), middle segment (0.7 to below 3), upper segment (3 or more)

Check out these entries, answers already filled in.
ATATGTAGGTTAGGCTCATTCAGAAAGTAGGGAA
lower segment
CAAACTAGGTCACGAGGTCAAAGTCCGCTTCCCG
upper segment
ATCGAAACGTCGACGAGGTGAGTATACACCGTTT
lower segment
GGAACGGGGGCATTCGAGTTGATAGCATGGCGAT
upper segment

Hi there! Could you help me figure out the category for `AGTCAGAGTTCATCTAGGTAACGTAAGATATGCT` please?
upper segment

Hi there! Could you help me figure out the category for `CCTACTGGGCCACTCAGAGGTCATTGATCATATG` please?
middle segment

Hi there! Could you help me figure out the category for `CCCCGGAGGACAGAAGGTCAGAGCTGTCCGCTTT` please?
lower segment

Hi there! Could you help me figure out the category for `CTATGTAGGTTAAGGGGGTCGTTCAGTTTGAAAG` please?
middle segment

Hi there! Could you help me figure out the category for `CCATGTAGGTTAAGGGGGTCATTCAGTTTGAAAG` please?
middle segment

Hi there! Could you help me figure out the category for `CGAATTAGGTCACCAGGACAGTGAAGAGGTTGGA` please?
middle segment

Hi there! Could you help me figure out the category for `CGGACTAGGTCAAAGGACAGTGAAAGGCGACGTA` please?
middle segment

----------
Test system: THRa homodimer (NR concentration 90 nM)
methodSummary: PBM binding z-score (relative to random genomic background probes); higher = stronger binding; sequences stand for … in GC…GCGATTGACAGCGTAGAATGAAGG
metric: PBM binding z-score
Could you respond with only the numeric value?

The cases that follow already have their PBM binding z-score on record.
CGAACTAGGTCGAAGGACAGTGAAAGGCGACGTA
-0.399
TCATATAGGTAAAAGGTCAAAGTCGGTGTGGTAA
1.47
CCAAGTAGGTTACGAGGGGGCATTCAGTGCGAAT
0.736

PBM binding z-score on THRa homodimer (NR concentration 90 nM) for `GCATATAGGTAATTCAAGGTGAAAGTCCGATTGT` is 1.67

PBM binding z-score on THRa homodimer (NR concentration 90 nM) for `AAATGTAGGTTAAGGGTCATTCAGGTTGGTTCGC` is 1.64

PBM binding z-score on THRa homodimer (NR concentration 90 nM) for `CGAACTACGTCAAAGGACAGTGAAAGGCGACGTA` is -0.314

PBM binding z-score on THRa homodimer (NR concentration 90 nM) for `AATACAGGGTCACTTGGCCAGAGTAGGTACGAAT` is 1.15

PBM binding z-score on THRa homodimer (NR concentration 90 nM) for `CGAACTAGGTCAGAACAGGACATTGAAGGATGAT` is 0.36

PBM binding z-score on THRa homodimer (NR concentration 90 nM) for `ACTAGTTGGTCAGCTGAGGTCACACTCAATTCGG` is 4.85

PBM binding z-score on THRa homodimer (NR concentration 90 nM) for `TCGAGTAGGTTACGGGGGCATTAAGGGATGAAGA` is 0.949

PBM binding z-score on THRa homodimer (NR concentration 90 nM) for `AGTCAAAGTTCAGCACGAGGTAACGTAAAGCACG` is 1.13

PBM binding z-score on THRa homodimer (NR concentration 90 nM) for `CTCTGTAGGTTAAGGGGGTCATTCAGTTTGAAAG` is 2.34

PBM binding z-score on THRa homodimer (NR concentration 90 nM) for `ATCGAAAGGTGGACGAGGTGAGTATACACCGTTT` is 0.434

PBM binding z-score on THRa homodimer (NR concentration 90 nM) for `CCTACTGGGCCACGTAAGGTCATTGATTCAGTGA` is 4.46

PBM binding z-score on THRa homodimer (NR concentration 90 nM) for `CGCACTAGGTCACCAGGACAGTGAAGAGGTTGGA` is 2.35

PBM binding z-score on THRa homodimer (NR concentration 90 nM) for `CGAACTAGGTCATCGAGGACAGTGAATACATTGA` is 2.51

PBM binding z-score on THRa homodimer (NR concentration 90 nM) for `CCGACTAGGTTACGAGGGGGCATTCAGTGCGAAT` is 0.757

PBM binding z-score on THRa homodimer (NR concentration 90 nM) for `TCTCGGAGGACACGAAAGGGCAGAGCTCGACATC` is 0.0765

PBM binding z-score on THRa homodimer (NR concentration 90 nM) for `CAAACTAGGTCACAGAGGACAAAGTCCGTGCGTA` is 1.94

PBM binding z-score on THRa homodimer (NR concentration 90 nM) for `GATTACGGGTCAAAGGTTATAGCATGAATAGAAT` is 0.146

PBM binding z-score on THRa homodimer (NR concentration 90 nM) for `CGGACTGGGGCAAAGGTTACCATACTCAGTACGA` is 0.079

PBM binding z-score on THRa homodimer (NR concentration 90 nM) for `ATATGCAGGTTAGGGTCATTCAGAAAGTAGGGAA` is 2.86

PBM binding z-score on THRa homodimer (NR concentration 90 nM) for `TCGAGTAGCTTACGGGGGCATTCAGGGATGAAGA` is 0.239

----------
Test system: PPARa:RXRa (NR concentration 270 nM, RXRa partner concentration 90 nM)
methodSummary: PBM binding z-score (relative to random genomic background probes); higher = stronger binding; sequences stand for … in GC…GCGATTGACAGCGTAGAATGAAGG
Label rule, in plain words: PBM binding z-score of 5 and up is 1 (yes), under 5 is 0 (no).

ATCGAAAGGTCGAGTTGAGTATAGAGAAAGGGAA
0 (no)
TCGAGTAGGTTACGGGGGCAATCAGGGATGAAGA
0 (no)
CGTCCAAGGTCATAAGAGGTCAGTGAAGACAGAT
1 (yes)
AATACAGGGACATCGTAGGCCAGAGTACGCACAG
0 (no)
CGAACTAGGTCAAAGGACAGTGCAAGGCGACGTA
1 (yes)
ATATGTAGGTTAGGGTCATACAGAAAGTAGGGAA
1 (yes)
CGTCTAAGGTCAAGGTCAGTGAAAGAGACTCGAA
1 (yes)
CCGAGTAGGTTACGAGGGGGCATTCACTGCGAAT
0 (no)
TCGAGTAGGTTACGGGGGCACTCAGGGATGAAGA
0 (no)
CTATGTAGGCTAAGGGGGTCATTCAGTTTGAAAG
1 (yes)

Determine whether this sequence has PBM binding z-score no lower than 5: `CTATGTAGGTTAAGGGGGTCATCCAGTTTGAAAG`
1 (yes)

Determine whether this sequence has PBM binding z-score no lower than 5: `CTATGTAGGGTAAGGGGGTCATTCAGTTTGAAAG`
1 (yes)

Determine whether this sequence has PBM binding z-score no lower than 5: `ACTAGGAGGACAAAGGTCAGAGCTACGCCAGTGA`
1 (yes)

Determine whether this sequence has PBM binding z-score no lower than 5: `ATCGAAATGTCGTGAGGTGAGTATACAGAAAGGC`
0 (no)

Determine whether this sequence has PBM binding z-score no lower than 5: `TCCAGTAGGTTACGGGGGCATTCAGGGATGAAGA`
0 (no)

Determine whether this sequence has PBM binding z-score no lower than 5: `CTCGAAAGGTCGGTTGAGGTGAGTAAACGGATAA`
0 (no)

Determine whether this sequence has PBM binding z-score no lower than 5: `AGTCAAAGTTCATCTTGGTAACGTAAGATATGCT`
0 (no)

Determine whether this sequence has PBM binding z-score no lower than 5: `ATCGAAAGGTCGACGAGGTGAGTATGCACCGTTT`
0 (no)

Determine whether this sequence has PBM binding z-score no lower than 5: `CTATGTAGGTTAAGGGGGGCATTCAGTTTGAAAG`
0 (no)

Determine whether this sequence has PBM binding z-score no lower than 5: `CGTCAAAGCTCAACTAAGGTAACGTAAAGCACGC`
0 (no)
